# target.or.system: Sodium- and chloride-dependent neutral and basic amino acid transporter B(0+) (Homo sapiens, UniProt Q9UN76)
# Sequence (Q9UN76 whole entry): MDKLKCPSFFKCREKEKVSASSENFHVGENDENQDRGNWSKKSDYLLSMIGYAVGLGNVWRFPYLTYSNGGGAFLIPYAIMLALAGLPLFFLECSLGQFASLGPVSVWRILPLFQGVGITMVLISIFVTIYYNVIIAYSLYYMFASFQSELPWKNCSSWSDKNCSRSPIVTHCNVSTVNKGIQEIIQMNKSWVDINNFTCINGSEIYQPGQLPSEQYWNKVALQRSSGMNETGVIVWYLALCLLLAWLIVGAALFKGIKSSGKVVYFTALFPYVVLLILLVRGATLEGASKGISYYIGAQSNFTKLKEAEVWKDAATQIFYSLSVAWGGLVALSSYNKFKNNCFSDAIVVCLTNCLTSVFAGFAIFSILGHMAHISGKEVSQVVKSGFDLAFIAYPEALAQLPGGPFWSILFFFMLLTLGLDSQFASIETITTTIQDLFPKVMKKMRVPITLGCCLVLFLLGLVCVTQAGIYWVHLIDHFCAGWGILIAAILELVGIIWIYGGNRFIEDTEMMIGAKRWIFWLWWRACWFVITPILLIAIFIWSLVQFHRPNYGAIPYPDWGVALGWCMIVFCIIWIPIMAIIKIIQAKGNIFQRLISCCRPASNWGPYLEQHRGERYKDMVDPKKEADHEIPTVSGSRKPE
# method: Substrate activity at SLC6A14 (unknown origin) expressed in Xenopus laevis oocytes assessed as inhibition of glycine uptake incubated for 10 mins by HPLC/MS/MS analysis
Strictly below 2000 µM in IC50: TRUE. Otherwise: FALSE.

smiles_str=N[C@@H](CC(=O)O[C@H]1C[C@H](n2cc(F)c(=O)[nH]c2=O)O[C@@H]1CO)C(=O)O class=TRUE
smiles_str=CC(C)[C@H](N)C(=O)OC[C@H]1O[C@@H](n2cc(F)c(=O)[nH]c2=O)C[C@@H]1O class=TRUE
smiles_str=N[C@@H](CCC(=O)OC[C@H]1O[C@@H](n2cc(F)c(=O)[nH]c2=O)C[C@@H]1O)C(=O)O class=TRUE
smiles_str=N[C@@H](CCC(=O)OC[C@H]1O[C@@H](n2cc(F)c(=O)[nH]c2=O)C[C@@H]1OC(=O)CC[C@H](N)C(=O)O)C(=O)O class=FALSE
smiles_str=N[C@@H](CC(=O)OC[C@H]1O[C@@H](n2cc(F)c(=O)[nH]c2=O)C[C@@H]1OC(=O)C[C@H](N)C(=O)O)C(=O)O class=FALSE
smiles_str=CC(C)[C@H](N)C(=O)O[C@H]1C[C@H](n2cc(F)c(=O)[nH]c2=O)O[C@@H]1CO class=TRUE
smiles_str=N[C@@H](CCC(=O)O[C@H]1C[C@H](n2cc(F)c(=O)[nH]c2=O)O[C@@H]1CO)C(=O)O class=TRUE
smiles_str=N[C@@H](CC(=O)OC[C@H]1O[C@@H](n2cc(F)c(=O)[nH]c2=O)C[C@@H]1O)C(=O)O class=TRUE

###

# method: Half life of compound in human ZR-75-1 cell homogenate
# Assay type: ADME, tissue-based
Label label 1 for high-side half-life (at or above 10 min) and label 0 for low-side half-life (below it).

molecule=CC(C)[C@H](N)C(=O)OC[C@H]1O[C@@H](n2cc(F)c(=O)[nH]c2=O)C[C@@H]1O class="label 1"
molecule=N[C@@H](CC(=O)OC[C@H]1O[C@@H](n2cc(F)c(=O)[nH]c2=O)C[C@@H]1O)C(=O)O class="label 1"
molecule=N[C@@H](CCC(=O)O[C@H]1C[C@H](n2cc(F)c(=O)[nH]c2=O)O[C@@H]1CO)C(=O)O class="label 0"
molecule=N[C@@H](CC(=O)O[C@H]1C[C@H](n2cc(F)c(=O)[nH]c2=O)O[C@@H]1CO)C(=O)O class="label 1"
molecule=CC(C)[C@H](N)C(=O)OC[C@H]1O[C@@H](n2cc(F)c(=O)[nH]c2=O)C[C@@H]1OC(=O)[C@@H](N)C(C)C class="label 0"
molecule=N[C@@H](CCC(=O)OC[C@H]1O[C@@H](n2cc(F)c(=O)[nH]c2=O)C[C@@H]1OC(=O)CC[C@H](N)C(=O)O)C(=O)O class="label 1"
molecule=CC(C)[C@H](N)C(=O)O[C@H]1C[C@H](n2cc(F)c(=O)[nH]c2=O)O[C@@H]1CO class="label 0"
molecule="O=c1[nH]c(=O)n([C@H]2C[C@H](O)[C@@H](CO)O2)cc1F [FLOXURIDINE]" class="label 1"
molecule=N[C@@H](CC(=O)OC[C@H]1O[C@@H](n2cc(F)c(=O)[nH]c2=O)C[C@@H]1OC(=O)C[C@H](N)C(=O)O)C(=O)O class="label 1"
molecule=N[C@@H](CCC(=O)OC[C@H]1O[C@@H](n2cc(F)c(=O)[nH]c2=O)C[C@@H]1O)C(=O)O class="label 1"

###

# half-life per entry
# method: Half life of compound in human MDA-MB-231 cell homogenate
# Assay type: ADME, tissue-based
value.type: half-life (min)

smiles_str=N[C@@H](CCC(=O)O[C@H]1C[C@H](n2cc(F)c(=O)[nH]c2=O)O[C@@H]1CO)C(=O)O value_type=half-life unit=min assay_value=8.3
smiles_str=N[C@@H](CCC(=O)OC[C@H]1O[C@@H](n2cc(F)c(=O)[nH]c2=O)C[C@@H]1OC(=O)CC[C@H](N)C(=O)O)C(=O)O value_type=half-life unit=min assay_value=21.1
smiles_str=N[C@@H](CC(=O)OC[C@H]1O[C@@H](n2cc(F)c(=O)[nH]c2=O)C[C@@H]1O)C(=O)O value_type=half-life unit=min assay_value=11.1
smiles_str=CC(C)[C@H](N)C(=O)OC[C@H]1O[C@@H](n2cc(F)c(=O)[nH]c2=O)C[C@@H]1O value_type=half-life unit=min assay_value=15.3
smiles_str=N[C@@H](CCC(=O)OC[C@H]1O[C@@H](n2cc(F)c(=O)[nH]c2=O)C[C@@H]1O)C(=O)O value_type=half-life unit=min assay_value=17.3
smiles_str=CC(C)[C@H](N)C(=O)OC[C@H]1O[C@@H](n2cc(F)c(=O)[nH]c2=O)C[C@@H]1OC(=O)[C@@H](N)C(C)C value_type=half-life unit=min assay_value=10.1
smiles_str=CC(C)[C@H](N)C(=O)O[C@H]1C[C@H](n2cc(F)c(=O)[nH]c2=O)O[C@@H]1CO value_type=half-life unit=min assay_value=14.9
smiles_str=N[C@@H](CC(=O)O[C@H]1C[C@H](n2cc(F)c(=O)[nH]c2=O)O[C@@H]1CO)C(=O)O value_type=half-life unit=min assay_value=19.3
smiles_str=N[C@@H](CC(=O)OC[C@H]1O[C@@H](n2cc(F)c(=O)[nH]c2=O)C[C@@H]1OC(=O)C[C@H](N)C(=O)O)C(=O)O value_type=half-life unit=min assay_value=9.3
smiles_str=O=c1[nH]c(=O)n([C@H]2C[C@H](O)[C@@H](CO)O2)cc1F value_type=half-life unit=min assay_value=23.1

###

# method: Half life in rat plasma at 200 uM measured up to 120 mins by HPLC-MS/MS analysis
# Assay type: ADME, cell-free
This listing pairs compounds with measured half-life at 200 µM.
value.type: half-life at 200 µM (h)

smiles_str=N[C@@H](CCC(=O)OC[C@H]1O[C@@H](n2cc(F)c(=O)[nH]c2=O)C[C@@H]1O)C(=O)O assay_value=1.91
smiles_str=N[C@@H](CCC(=O)O[C@H]1C[C@H](n2cc(F)c(=O)[nH]c2=O)O[C@@H]1CO)C(=O)O assay_value=1.62
smiles_str=N[C@@H](CC(=O)O[C@H]1C[C@H](n2cc(F)c(=O)[nH]c2=O)O[C@@H]1CO)C(=O)O assay_value=2.06
smiles_str=N[C@@H](CCC(=O)OC[C@H]1O[C@@H](n2cc(F)c(=O)[nH]c2=O)C[C@@H]1OC(=O)CC[C@H](N)C(=O)O)C(=O)O assay_value=1.13
smiles_str=CC(C)[C@H](N)C(=O)OC[C@H]1O[C@@H](n2cc(F)c(=O)[nH]c2=O)C[C@@H]1OC(=O)[C@@H](N)C(C)C assay_value=0.63
smiles_str=CC(C)[C@H](N)C(=O)O[C@H]1C[C@H](n2cc(F)c(=O)[nH]c2=O)O[C@@H]1CO assay_value=1.09
smiles_str=CC(C)[C@H](N)C(=O)OC[C@H]1O[C@@H](n2cc(F)c(=O)[nH]c2=O)C[C@@H]1O assay_value=1.31
smiles_str=N[C@@H](CC(=O)OC[C@H]1O[C@@H](n2cc(F)c(=O)[nH]c2=O)C[C@@H]1O)C(=O)O assay_value=2.49
smiles_str=N[C@@H](CC(=O)OC[C@H]1O[C@@H](n2cc(F)c(=O)[nH]c2=O)C[C@@H]1OC(=O)C[C@H](N)C(=O)O)C(=O)O assay_value=0.935
